Assay: Apparent permeability of the compound across apical side to basolateral side in human Caco-2 cells incubated for 1 hr by LC-MS/MS analysis
Settings: Caco-2
readout: Papp A→B at 1 h (×10⁻⁶ cm/s)

> print(dat)
                            chemical.smiles          readout  meas.value
1  Nc1cccc2cc(CNC(=O)c3cnn(Cc4ccc(Cn5ccccc5=O)cc4)c3)ccc12  Papp A→B at 1 h           2

* * *

Target: Cytochrome P450 2C8 (Homo sapiens, UniProt P10632)
Sequence (P10632 whole entry): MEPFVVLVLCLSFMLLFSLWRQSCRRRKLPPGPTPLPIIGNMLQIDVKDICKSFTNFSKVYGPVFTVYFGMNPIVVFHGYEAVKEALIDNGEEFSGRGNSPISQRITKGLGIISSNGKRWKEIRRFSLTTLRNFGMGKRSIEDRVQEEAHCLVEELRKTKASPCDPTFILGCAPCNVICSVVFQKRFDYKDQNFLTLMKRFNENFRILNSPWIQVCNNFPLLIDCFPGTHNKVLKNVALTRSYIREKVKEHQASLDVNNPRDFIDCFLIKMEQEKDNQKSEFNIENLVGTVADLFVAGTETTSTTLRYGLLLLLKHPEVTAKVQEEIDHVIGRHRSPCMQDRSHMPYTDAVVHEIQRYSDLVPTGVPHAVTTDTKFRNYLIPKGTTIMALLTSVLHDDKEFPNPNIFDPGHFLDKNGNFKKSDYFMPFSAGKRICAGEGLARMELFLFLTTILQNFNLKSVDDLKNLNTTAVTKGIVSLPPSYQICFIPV
pIC50: −log10 of the molar value.
readout: pIC50

> print(dat)
                            chemical.smiles  qualifier.sign  meas.value
1  COCc1nn(Cc2ccc(Cn3ccccc3=O)cc2)cc1C(=O)NCc1c(F)ccc(OC)c1F               =        4.85
2  COCc1nn(Cc2ccc(Cn3ccccc3=O)cc2)cc1C(=O)NCc1nccc(OC)c1F               <        4.60

* * *

Target: Plasma kallikrein (Homo sapiens, UniProt P03952)
Sequence (P03952 20-390 limits assumed): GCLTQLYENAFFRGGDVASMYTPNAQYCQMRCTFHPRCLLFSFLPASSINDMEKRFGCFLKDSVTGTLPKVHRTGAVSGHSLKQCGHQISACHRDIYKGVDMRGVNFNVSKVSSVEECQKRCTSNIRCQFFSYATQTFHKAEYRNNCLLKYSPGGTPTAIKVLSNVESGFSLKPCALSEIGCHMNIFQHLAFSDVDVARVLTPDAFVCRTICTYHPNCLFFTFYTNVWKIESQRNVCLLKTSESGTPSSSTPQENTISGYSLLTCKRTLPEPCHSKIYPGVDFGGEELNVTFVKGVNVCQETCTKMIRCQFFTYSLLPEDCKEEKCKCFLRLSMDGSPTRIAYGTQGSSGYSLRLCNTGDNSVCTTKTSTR
Sequence (P03952 391-638 limits assumed): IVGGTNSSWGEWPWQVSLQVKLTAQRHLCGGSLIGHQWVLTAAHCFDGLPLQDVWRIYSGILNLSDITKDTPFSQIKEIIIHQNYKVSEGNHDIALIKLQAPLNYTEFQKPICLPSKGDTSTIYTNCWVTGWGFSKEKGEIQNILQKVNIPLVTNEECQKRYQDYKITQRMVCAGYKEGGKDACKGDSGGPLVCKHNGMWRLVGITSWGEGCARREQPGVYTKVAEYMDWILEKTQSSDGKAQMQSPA
Assay: Inhibition of human plasma kallikrein using H-D-Pro-Phe-Arg-AFC as flurogenic substrate at 100 nM preincubated for 5 mins followed by substrate addition by fluorometer analysis relative to control
Format: cell-free
readout: inhibition (%)

> print(dat)
                            chemical.smiles  meas.value
1  O=C(NCc1c(F)cccc1F)c1cnn(Cc2ccc(Cn3ccccc3=O)cc2)c1          47
2  Cc1ccccc1CNC(=O)c1cnn(Cc2ccc(Cn3ccccc3=O)cc2)c1          12
3  O=C(NCc1ccccc1)c1cnn(Cc2ccc(Cn3ccccc3=O)cc2)c1           0
4  O=C(NCc1ccc(Cl)cc1)c1cnn(Cc2ccc(Cn3ccccc3=O)cc2)c1          13
5  Cc1ccc(CNC(=O)c2cnn(Cc3ccc(Cn4ccccc4=O)cc3)c2)cc1          36

* * *

Target: Cytochrome P450 3A4 (Homo sapiens, UniProt P08684)
Sequence (P08684 whole entry): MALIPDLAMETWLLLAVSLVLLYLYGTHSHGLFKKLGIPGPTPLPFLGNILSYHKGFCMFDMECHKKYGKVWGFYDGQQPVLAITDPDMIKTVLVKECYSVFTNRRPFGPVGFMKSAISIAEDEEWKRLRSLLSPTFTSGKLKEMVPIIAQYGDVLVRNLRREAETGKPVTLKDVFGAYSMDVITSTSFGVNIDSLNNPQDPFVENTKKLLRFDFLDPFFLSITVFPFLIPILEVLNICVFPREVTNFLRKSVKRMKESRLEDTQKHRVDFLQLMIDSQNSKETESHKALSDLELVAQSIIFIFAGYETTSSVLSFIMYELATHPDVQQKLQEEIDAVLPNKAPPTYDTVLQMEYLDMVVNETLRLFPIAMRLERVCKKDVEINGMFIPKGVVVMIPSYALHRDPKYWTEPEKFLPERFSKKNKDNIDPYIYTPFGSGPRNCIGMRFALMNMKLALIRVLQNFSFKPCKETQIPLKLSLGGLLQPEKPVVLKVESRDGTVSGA
Assay: Inhibition of CYP3A4 in human liver microsomes assessed as reduction in 6beta-hydroxymidazolam metabolite formation using midazolam as substrate incubated for 30 mins in presence of NADPH by LC-MS/MS analysis
Assay type: ADME, Microsome
Attribute: IC50
readout: IC50

> print(dat)
                            chemical.smiles  readout  meas.value
1  COc1ccnc(CNC(=O)c2cn(Cc3ccc(Cn4ccccc4=O)cc3)nc2C(F)(F)F)c1F     IC50     > 25 µM
2  COCc1nn(Cc2ccc(Cn3ccccc3=O)cc2)cc1C(=O)NCc1nccc(OC)c1F     IC50     > 25 µM
3  COCc1nn(Cc2ccc(Cn3ccccc3=O)cc2)cc1C(=O)NCc1c(F)ccc(OC)c1F     IC50       19 µM

* * *

Attribute: Vdss
Assay: Volume of distribution at steady state in Beagle dog at 1 mg/kg, po and 1 mg/kg, iv measured upto 24 hrs by LC-MS analysis
Type: ADME, organism-based, Canis lupus familiaris
Conditions: in vivo
readout: Vdss (L/kg)

> print(dat)
                            chemical.smiles  readout  meas.value
1  COc1ccnc(CNC(=O)c2cn(Cc3ccc(Cn4ccccc4=O)cc3)nc2C(F)(F)F)c1F     Vdss        0.63
2  COCc1nn(Cc2ccc(Cn3ccccc3=O)cc2)cc1C(=O)NCc1c(F)ccc(OC)c1F     Vdss        0.36
3  COCc1nn(Cc2ccc(Cn3ccccc3=O)cc2)cc1C(=O)NCc1nccc(OC)c1F     Vdss        0.65

* * *

Attribute: inhibition
Biological target: Plasma kallikrein (Homo sapiens)
Assay: Inhibition of human plasma kallikrein using H-D-Pro-Phe-Arg-AFC as flurogenic substrate at 100 nM preincubated for 5 mins followed by substrate addition by fluorometer analysis relative to control
Type: cell-free
readout: inhibition (%)

> print(dat)
                            chemical.smiles                measurement.target  meas.value
1  Cc1cccc(CNC(=O)c2cnn(Cc3ccc(Cn4ccccc4=O)cc3)c2)c1  Plasma kallikrein (Homo sapiens)          11
2  COc1ccccc1CNC(=O)c1cnn(Cc2ccc(Cn3ccccc3=O)cc2)c1  Plasma kallikrein (Homo sapiens)          11
3  Cc1cccc(C)c1CNC(=O)c1cnn(Cc2ccc(Cn3ccccc3=O)cc2)c1  Plasma kallikrein (Homo sapiens)          53
4  O=C(NCc1c(F)cccc1Cl)c1cnn(Cc2ccc(Cn3ccccc3=O)cc2)c1  Plasma kallikrein (Homo sapiens)          61
5  O=C(NCc1ccccc1Cl)c1cnn(Cc2ccc(Cn3ccccc3=O)cc2)c1  Plasma kallikrein (Homo sapiens)          12
6  COc1ccc(CNC(=O)c2cnn(Cc3ccc(Cn4ccccc4=O)cc3)c2)cc1  Plasma kallikrein (Homo sapiens)          17

* * *

Target: Tissue-type plasminogen activator (Homo sapiens)
Sequence (P00750 whole entry): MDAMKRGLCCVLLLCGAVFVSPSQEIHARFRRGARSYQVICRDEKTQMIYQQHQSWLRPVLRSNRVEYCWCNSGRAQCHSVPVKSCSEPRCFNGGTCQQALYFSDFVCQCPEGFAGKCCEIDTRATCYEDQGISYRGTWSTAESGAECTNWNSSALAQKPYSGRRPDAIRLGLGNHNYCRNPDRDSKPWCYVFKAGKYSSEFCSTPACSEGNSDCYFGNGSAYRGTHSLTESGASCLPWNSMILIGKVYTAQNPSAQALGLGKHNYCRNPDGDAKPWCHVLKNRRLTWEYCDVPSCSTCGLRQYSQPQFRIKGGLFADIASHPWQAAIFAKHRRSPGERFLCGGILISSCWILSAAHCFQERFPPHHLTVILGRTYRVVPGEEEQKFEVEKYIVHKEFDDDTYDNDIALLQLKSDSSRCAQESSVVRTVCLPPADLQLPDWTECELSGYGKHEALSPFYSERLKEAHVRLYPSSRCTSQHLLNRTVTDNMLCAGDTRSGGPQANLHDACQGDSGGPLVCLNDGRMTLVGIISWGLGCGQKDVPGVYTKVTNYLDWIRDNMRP
readout: IC50

> print(dat)
                            chemical.smiles  meas.value
1  COCc1nn(Cc2ccc(Cn3ccccc3=O)cc2)cc1C(=O)NCc1nccc(OC)c1F     > 10 µM

* * *

Molecular target: Renin (Homo sapiens)
Sequence (P00797 whole entry): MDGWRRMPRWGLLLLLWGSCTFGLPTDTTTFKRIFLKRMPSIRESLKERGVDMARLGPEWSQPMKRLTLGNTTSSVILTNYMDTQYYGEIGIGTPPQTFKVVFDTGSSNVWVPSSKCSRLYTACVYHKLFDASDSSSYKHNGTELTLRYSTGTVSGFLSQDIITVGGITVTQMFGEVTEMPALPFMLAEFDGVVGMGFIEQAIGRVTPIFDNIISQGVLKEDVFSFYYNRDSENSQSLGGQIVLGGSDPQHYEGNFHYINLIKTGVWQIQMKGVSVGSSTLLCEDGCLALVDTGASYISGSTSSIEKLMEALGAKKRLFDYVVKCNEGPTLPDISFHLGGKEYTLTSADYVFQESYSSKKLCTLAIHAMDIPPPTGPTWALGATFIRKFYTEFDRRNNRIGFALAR
readout: IC50

> print(dat)
                            chemical.smiles  meas.value
1  COCc1nn(Cc2ccc(Cn3ccccc3=O)cc2)cc1C(=O)NCc1nccc(OC)c1F     > 10 µM

* * *

Test: Kinetic solubility of the compound in 0.1N HCl
readout: solubility kinetic

> print(dat)
                            chemical.smiles   meas.value
1  COCc1nn(Cc2ccc(Cn3ccccc3=O)cc2)cc1C(=O)NCc1c(Cl)ccc(OC)c1F  > 120 µg/mL
2  COCc1nn(Cc2ccc(Cn3ccccc3=O)cc2)cc1C(=O)NCc1c(F)ccc(OC)c1F  > 120 µg/mL
3  COc1cccc(CNC(=O)c2cn(Cc3ccc(Cn4ccccc4=O)cc3)nc2C2CC2)c1F  > 110 µg/mL
4  COCc1nn(Cc2ccc(Cn3ccccc3=O)cc2)cc1C(=O)NCc1cccc(O)c1F  > 120 µg/mL
5  COCc1nn(Cc2ccc(Cn3ccccc3=O)cc2)cc1C(=O)NCc1cc(OC)ccc1F  > 120 µg/mL
6  CCc1cccc(CNC(=O)c2cn(Cc3ccc(Cn4ccccc4=O)cc3)nc2COC)c1F     29 µg/mL
7  COCc1nn(Cc2ccc(Cn3ccccc3=O)cc2)cc1C(=O)NCc1c(C#N)ccc(OC)c1F  > 120 µg/mL
8  COCc1nn(Cc2ccc(Cn3ccccc3=O)cc2)cc1C(=O)NCc1cccc(OC)c1F  > 120 µg/mL
9  COc1cccc(CNC(=O)c2cn(Cc3ccc(Cn4ccccc4=O)cc3)nc2N(C)C)c1F  > 120 µg/mL

* * *

Test: Metabolic stability in human liver microsomes assessed as intrinsic clearance per mg of protein measured upto 60 mins in presence of NADPH regenerating system by LC-MS/MS analysis
Assay type: ADME, Microsome
Conditions: microsomes, 1 h
readout: microsomal intrinsic clearance (µL/min)

> print(dat)
                             chemical.smiles                         readout  meas.value
 1  COCc1nn(Cc2ccc(Cn3ccccc3=O)cc2)cc1C(=O)NCc1c(F)ccc(OC)c1F  microsomal intrinsic clearance          92
 2  COc1ccnc(CNC(=O)c2cn(Cc3ccc(Cn4ccccc4=O)cc3)nc2C(F)(F)F)c1F  microsomal intrinsic clearance          49
 3  COCc1nn(Cc2ccc(Cn3ccccc3=O)cc2)cc1C(=O)NCc1c(Cl)ccc(OC)c1F  microsomal intrinsic clearance         120
 4  COCc1nn(Cc2ccc(Cn3ccccc3=O)cc2)cc1C(=O)NCc1cccc(OC)c1F  microsomal intrinsic clearance          45
 5  COc1ccc(F)c(CNC(=O)c2cn(Cc3ccc(Cn4ccccc4=O)cc3)nc2CN(C)C)c1F  microsomal intrinsic clearance         280
 6  COc1ccnc(CNC(=O)c2cn(Cc3ccc(Cn4ccccc4=O)cc3)nc2C2CC2)c1F  microsomal intrinsic clearance          49
 7  COCc1nn(Cc2ccc(Cn3ccccc3=O)cc2)cc1C(=O)NCc1c(C#N)ccc(OC)c1F  microsomal intrinsic clearance          58
 8  COc1ccc(F)c(CNC(=O)c2cnn(Cc3ccc(Cn4ccccc4=O)cc3)c2)c1F  microsomal intrinsic clearance          36
 9  Cc1cnn(Cc2ccc(Cn3cc(C(=O)NCc4ccc5c(N)nccc5c4)cn3)cc2)c1  microsomal intrinsic clearance         181
10  COc1cccc(CNC(=O)c2cn(Cc3ccc(Cn4ccccc4=O)cc3)nc2C2CC2)c1F  microsomal intrinsic clearance         170
11  COCc1nn(Cc2ccc(Cn3ccccc3=O)cc2)cc1C(=O)NCc1nccc(OC)c1F  microsomal intrinsic clearance          14
12  COc1ccnc(CNC(=O)c2cnn(Cc3ccc(Cn4ccccc4=O)cc3)c2)c1F  microsomal intrinsic clearance           2
13  CCOc1ccnc(CNC(=O)c2cn(Cc3ccc(Cn4ccccc4=O)cc3)nc2COC)c1F  microsomal intrinsic clearance          69

Cited source for all entries: ChEMBL document CHEMBL5108074
